# System: CCRIS mutagenicity, Ames/micronucleus/aberration tests
# Experimental protocol: CCRIS mutagenicity studies
# Test context: Test System: AMES SALMONELLA TYPHIMURIUM; Strain/Indicator: TA100; Metabolic Activation: RAT, LIVER, S-9, AROCLOR 1254; Method: SPOT TEST
Calls of active or inactive are those of the source. How the calls were made is not given here.
Possible outcomes: active, inactive

Compound: CC(C)=CCOc1c2occc2cc2ccc(=O)oc12
Class label: active
--
Compound: CC1(C)O[C@H]1COc1c2ccoc2cc2oc(=O)ccc12
Class label: inactive
--
Compound: CC(C)(O)[C@H]1Cc2cc3ccc(=O)oc3cc2O1
Class label: active
--
Compound: C=CC(C)(C)c1cc2cc3c(cc2oc1=O)OC(C(C)(C)O)C3 (centres undefined)
Class label: inactive

====

# Test system: CCRIS mutagenicity, Ames/micronucleus/aberration tests
# Experimental protocol: CCRIS mutagenicity studies
# Test context: Test System: AMES SALMONELLA TYPHIMURIUM; Strain/Indicator: YG1025; Metabolic Activation: NONE; Method: PREINCUBATION
Calls of active or inactive are those of the source. No rule for the calls is given here.
Possible outcomes: y = active, n = inactive

Structure string: Nc1nc(-c2ccc([N+](=O)[O-])cc2)nc2c1ncn2-c1ccc([N+](=O)[O-])cc1
Target desc: CCRIS mutagenicity, Ames/micronucleus/aberration tests
Class label: y

Structure string: O=[N+]([O-])c1ccc(CNc2ncnc3nc[nH]c23)cc1
Target desc: CCRIS mutagenicity, Ames/micronucleus/aberration tests
Class label: n

Structure string: Nc1ncnc2nc(-c3ccc([N+](=O)[O-])cc3)[nH]c12
Target desc: CCRIS mutagenicity, Ames/micronucleus/aberration tests
Class label: y

Structure string: O=[N+]([O-])c1ccc(Nc2ncnc3nc[nH]c23)cc1
Target desc: CCRIS mutagenicity, Ames/micronucleus/aberration tests
Class label: n

====

# Test system: CCRIS mutagenicity, Ames/micronucleus/aberration tests
# Experimental protocol: CCRIS mutagenicity studies
# Test context: Test System: AMES SALMONELLA TYPHIMURIUM; Strain/Indicator: TA98; Metabolic Activation: NONE; Method: STANDARD PLATE
Active and inactive are the calls of the source. The rule behind the calls is not given here.
Labels: active, inactive

Compound: Nc1ccc2nc3ccccn3c2n1
Class label: inactive
//
Compound: C=CCN(CC=C)c1cc(NC(C)=O)c(N=Nc2c(Br)cc([N+](=O)[O-])cc2[N+](=O)[O-])cc1OC
Class label: inactive
//
Compound: N/C(=N\O)c1ccc(O)c(O)c1
Class label: inactive
//
Compound: C[C@H]1C=C(C=O)C(C=O)=C[C@]2(O)CC(C)(C)C[C@H]12
Class label: active
//
Compound: c1ccc2c(c1)CC[C@@H]1CCC[C@@H]3O[C@]213
Class label: inactive
//
Compound: O=[N+]([O-])c1cccc2c1-c1cccc3cccc-2c13
Class label: active
//
Compound: c1cc2c3c(cccc3c1)C1NC21 (stereo unspecified)
Class label: active
//
Compound: COc1ccc([C@H]2O[C@H]2C(=O)c2ccccc2)cc1
Class label: inactive
//
Compound: O=C(O)c1ccc(ON2P(Oc3ccc(C(=O)O)cc3)N=P(Oc3ccc(C(=O)O)cc3)(Oc3ccc(C(=O)O)cc3)N(Oc3ccc(C(=O)O)cc3)P2Oc2ccc(C(=O)O)cc2)cc1 (stereo unspecified)
Class label: inactive
//
Compound: ClC(Cl)(Cl)Br
Class label: active
//
Compound: O=Nc1ccc2c(c1)Cc1ccccc1-2
Class label: active
